Form field: inhibition at 1 µM (one value per entry).
- target_under_test: human SSTR5 (Homo sapiens)
- Construct: expressed in transfected cells
- Sequence (P35346 whole entry): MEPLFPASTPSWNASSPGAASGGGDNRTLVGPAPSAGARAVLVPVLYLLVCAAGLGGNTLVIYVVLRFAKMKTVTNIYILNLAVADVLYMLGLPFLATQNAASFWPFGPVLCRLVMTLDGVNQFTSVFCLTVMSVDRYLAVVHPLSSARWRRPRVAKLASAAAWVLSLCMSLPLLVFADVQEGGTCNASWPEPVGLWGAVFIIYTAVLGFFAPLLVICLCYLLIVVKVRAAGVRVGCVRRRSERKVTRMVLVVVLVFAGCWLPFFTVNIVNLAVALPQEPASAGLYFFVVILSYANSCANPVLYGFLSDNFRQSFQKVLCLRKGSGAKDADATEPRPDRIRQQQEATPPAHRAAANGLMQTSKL
- test_protocol: Human SSTR5 antagonist activity using intracellular cAMP concentration as indicator (somatostatin 14, Test Example 1)
- Assay type: cell-based
- particulars: 1 μM test compound; 1 nM somatostatin 14 and 0.3 μM forskolin; CHO (dhfr-) cells expressing human SSTR5; HTRF cAMP; read-out: Inhibition rate (%) with respect to SSTR5 in concentration of 1 μM
parameter: inhibition at 1 µM (%)

1) CCOc1cc(CN2CC3(CC(N4CCC(C)(C(=O)O)CC4)=NO3)C2)cc(C(F)(F)F)c1-c1ccc(F)cc1	108
2) CCOc1cc(CN2CC3(CC([C@H]4CC[C@H](C(=O)O)CC4)=NO3)C2)cc(C2CC2)c1-c1ccc(F)cc1	97
3) CC(F)(F)COc1cc(CN2CC3(CC(N4CCC(C)(C(=O)O)CC4)=NO3)C2)cc(C2CC2)c1-c1ccc(F)cc1	90
4) CCOc1cc(-c2ccc(F)cc2)c(C2CC2)cc1CN1CC2(CC(N3CCC(C(=O)O)CC3)=NO2)C1	111
5) CC1(C(=O)O)CCN(C2=NOC3(C2)CN(Cc2cc(OCCC(F)(F)F)c(-c4ccc(F)cc4)c(C4CC4)c2)C3)CC1	91

The origin of these recorded values is patent US9605000B2.
